These data points were gathered from patent EP4640240A1.

test: Partition coefficient logD (n-octanol/PBS); format: physicochemical; conditions: n=6
READOUT_KIND: logD
Please reply with the value in numeric form only.

Documented logD of NC(=O)CNC(=O)CNC(=O)[C@H](CCCCNC(=O)CCCCc1cn(C2O[C@H](CO)[C@H](O)[C@H](O)[C@H]2O)nn1)NC(=O)CNC(=O)CNC(=O)[C@H](CCCCNC(=O)CCCCc1cn(C2O[C@H](CO)[C@H](O)[C@H](O)[C@H]2O)nn1)NC(=O)CNC(=O)CNC(=O)[C@H](CCCCNC(=O)CCCCc1cn(C2O[C@H](CO)[C@H](O)[C@H](O)[C@H]2O)nn1)NC(=O)CCCNC(=O)CC[C@H](C(=O)O)N1CCN(CC(=O)O)CCN(CC(=O)O)CC1 (stereo partly shown) [[68Ga]Ga-TriLysan, metal not drawn] : -3.52

---

Experiment: Biodistribution studies in BALB/c mice
Type: in vivo
Conditions: female, mouse, iv, total radioactivity; Muscle, 60 min p.i., healthy BALB/c mice, 0.1 nmol i.v.; read-out: Biodistribution data, Muscle
Protocol: For biodistribution studies 6-week-old female BALB/c mice (n=3) were injected with 0.1 nmol (100 µL, approx. 1 MBq) of labelled compound via the lateral tail vein and sacrificed after 10, 30, or 60 min by cervical dislocation. The mice were dissected, blood and organs (spleen, pancreas, stomach, intestine, liver, kidney, heart, lung, muscle and bone) were weighed and their activity measured in a γ-counter. For blocking experiments, mice were co-injected with 27.7 µmοl N-acetylgalactose.
READOUT_KIND: tissue uptake at 1 h
# output: number + unit

Documented tissue uptake at 1 h of NC(=O)CNC(=O)CNC(=O)[C@H](CCCCNC(=O)CCCCc1cn(C2O[C@H](CO)[C@H](O)[C@H](O)[C@H]2O)nn1)NC(=O)CNC(=O)CNC(=O)[C@H](CCCCNC(=O)CCCCc1cn(C2O[C@H](CO)[C@H](O)[C@H](O)[C@H]2O)nn1)NC(=O)CNC(=O)CNC(=O)[C@H](CCCCNC(=O)CCCCc1cn(C2O[C@H](CO)[C@H](O)[C@H](O)[C@H]2O)nn1)NC(=O)CCCNC(=O)CC[C@H](C(=O)O)N1CCN(CC(=O)O)CCN(CC(=O)O)CC1 (stereo partly shown) [[68Ga]Ga-TriLysan, metal not drawn] : 0.12 %ID/g

---

test: Stability in human blood serum (radio-HPLC); type: in vitro ADME; settings: 37 °C, 30 min, n=2, read-out: Serum stability (% of intact ligand)
READOUT_KIND: remaining at 0.5 h (%)
// return numeric value only (unit: %, not printed)

Documented remaining at 0.5 h of NC(=O)CNC(=O)CNC(=O)[C@H](CCCCNC(=O)CCCCc1cn(C2O[C@H](CO)[C@H](O)[C@H](O)[C@H]2O)nn1)NC(=O)CNC(=O)CNC(=O)[C@H](CCCCNC(=O)CCCCc1cn(C2O[C@H](CO)[C@H](O)[C@H](O)[C@H]2O)nn1)NC(=O)CNC(=O)CNC(=O)[C@H](CCCCNC(=O)CCCCc1cn(C2O[C@H](CO)[C@H](O)[C@H](O)[C@H]2O)nn1)NC(=O)CCCNC(=O)CC[C@H](C(=O)O)N1CCN(CC(=O)O)CCN(CC(=O)O)CC1 (stereo partly shown) [[68Ga]Ga-TriLysan, metal not drawn] : 99.9
